- systemUnderTest: T1, IL10Rα and IL2Rγ on human primary cells (CD8 T cells, CD4 T cells, monocytes) (human) (UniProt Q13651)
- T1 sequence (looked up) 1: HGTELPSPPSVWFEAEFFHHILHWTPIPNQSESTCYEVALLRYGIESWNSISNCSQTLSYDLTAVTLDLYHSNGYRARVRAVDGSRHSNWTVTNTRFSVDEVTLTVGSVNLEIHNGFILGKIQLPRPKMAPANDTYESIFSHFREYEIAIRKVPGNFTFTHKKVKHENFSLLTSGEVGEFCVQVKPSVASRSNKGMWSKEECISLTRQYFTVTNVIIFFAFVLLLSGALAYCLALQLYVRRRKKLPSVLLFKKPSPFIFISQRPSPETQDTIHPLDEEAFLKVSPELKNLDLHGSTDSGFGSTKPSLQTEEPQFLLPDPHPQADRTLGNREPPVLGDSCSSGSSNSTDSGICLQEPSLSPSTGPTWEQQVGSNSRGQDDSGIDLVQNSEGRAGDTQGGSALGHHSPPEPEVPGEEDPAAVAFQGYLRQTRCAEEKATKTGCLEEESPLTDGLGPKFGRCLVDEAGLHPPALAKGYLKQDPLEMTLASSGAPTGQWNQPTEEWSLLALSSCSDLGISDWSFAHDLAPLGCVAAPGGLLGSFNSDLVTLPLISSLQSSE
- T1 sequence (looked up) 2: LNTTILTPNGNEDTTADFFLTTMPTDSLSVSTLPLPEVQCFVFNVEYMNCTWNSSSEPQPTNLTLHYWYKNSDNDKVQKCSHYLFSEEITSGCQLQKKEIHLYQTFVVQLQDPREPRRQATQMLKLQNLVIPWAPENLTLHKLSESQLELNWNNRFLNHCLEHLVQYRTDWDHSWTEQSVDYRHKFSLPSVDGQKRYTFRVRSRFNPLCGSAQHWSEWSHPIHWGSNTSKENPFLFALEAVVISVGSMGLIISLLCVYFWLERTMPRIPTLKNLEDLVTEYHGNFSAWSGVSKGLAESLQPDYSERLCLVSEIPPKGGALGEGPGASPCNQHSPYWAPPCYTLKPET
- assayNotes: cell-based or functional assay
Listing of recorded pSTAT3 (MFI) in monocytes at 0.1 µM by entry.
Form entry: value (MFI) — number only.

hIL10Ra_VHH14-hIL2Rg_VHH19, linker GS, tag his (bispecific antibody, not shown: small tags and cut ends) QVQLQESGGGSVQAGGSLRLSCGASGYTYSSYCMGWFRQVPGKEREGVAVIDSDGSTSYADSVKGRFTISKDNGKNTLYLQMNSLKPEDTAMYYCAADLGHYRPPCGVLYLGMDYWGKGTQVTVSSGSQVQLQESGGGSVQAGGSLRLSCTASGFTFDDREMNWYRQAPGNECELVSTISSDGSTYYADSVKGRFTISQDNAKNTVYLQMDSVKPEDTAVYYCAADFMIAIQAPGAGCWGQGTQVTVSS ... 4430
hIL10Ra_VHH14-hIL2Rg_VHH19, linker GGGS, tag his (bispecific antibody, not shown: small tags and cut ends) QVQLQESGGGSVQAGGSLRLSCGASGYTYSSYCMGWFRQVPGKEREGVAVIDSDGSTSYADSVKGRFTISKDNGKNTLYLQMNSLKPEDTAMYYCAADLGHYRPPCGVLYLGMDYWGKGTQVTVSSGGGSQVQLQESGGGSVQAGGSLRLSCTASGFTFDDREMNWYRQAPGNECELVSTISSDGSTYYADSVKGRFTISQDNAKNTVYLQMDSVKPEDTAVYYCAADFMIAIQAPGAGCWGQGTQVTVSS ... 4280
hIL10Ra_VHH14-hIL2Rg_VHH19, linker GGGSGGGS, tag his (bispecific antibody, not shown: small tags and cut ends) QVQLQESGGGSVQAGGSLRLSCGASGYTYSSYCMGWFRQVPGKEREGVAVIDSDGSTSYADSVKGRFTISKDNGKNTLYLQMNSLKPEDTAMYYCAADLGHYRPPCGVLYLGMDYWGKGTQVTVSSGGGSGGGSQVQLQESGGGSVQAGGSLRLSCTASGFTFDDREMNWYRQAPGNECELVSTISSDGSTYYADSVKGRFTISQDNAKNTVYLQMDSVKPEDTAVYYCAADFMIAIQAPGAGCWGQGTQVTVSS ... 4420
hIL10Ra_VHH14-hIL2Rg_VHH19, linker …, tag his (bispecific antibody, not shown: small tags and cut ends) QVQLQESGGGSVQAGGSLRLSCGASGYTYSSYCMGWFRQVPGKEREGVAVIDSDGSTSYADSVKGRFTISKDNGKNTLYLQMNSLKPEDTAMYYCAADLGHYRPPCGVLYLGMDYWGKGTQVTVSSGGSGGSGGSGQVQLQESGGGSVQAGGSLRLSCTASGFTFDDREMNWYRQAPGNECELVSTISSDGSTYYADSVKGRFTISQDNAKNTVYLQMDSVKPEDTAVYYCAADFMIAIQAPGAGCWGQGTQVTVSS ... 4690
hIL10Ra_VHH14-hIL2Rg_VHH19, linker GGSGGS, tag his (bispecific antibody, not shown: small tags and cut ends) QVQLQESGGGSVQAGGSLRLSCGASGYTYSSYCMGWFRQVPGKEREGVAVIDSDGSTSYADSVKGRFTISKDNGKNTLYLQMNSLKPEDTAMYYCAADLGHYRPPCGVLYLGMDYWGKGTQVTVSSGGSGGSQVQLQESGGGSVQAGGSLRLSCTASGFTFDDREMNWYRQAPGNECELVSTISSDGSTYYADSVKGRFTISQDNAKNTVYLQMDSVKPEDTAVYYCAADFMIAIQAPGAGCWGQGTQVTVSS ... 4470
hIL10Ra_VHH14-hIL2Rg_VHH19, linker GGGS, tag Fc (Fc fusion, not shown: a dimerising Fc or GST) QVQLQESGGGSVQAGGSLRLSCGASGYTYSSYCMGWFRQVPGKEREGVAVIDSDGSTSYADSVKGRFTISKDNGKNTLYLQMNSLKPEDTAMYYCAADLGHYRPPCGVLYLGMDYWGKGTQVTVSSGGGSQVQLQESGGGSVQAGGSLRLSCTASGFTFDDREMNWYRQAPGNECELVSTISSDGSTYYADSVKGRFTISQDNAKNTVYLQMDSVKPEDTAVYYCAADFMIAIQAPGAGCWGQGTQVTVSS ... 4810

Would you kindly look at the next entry?
Looking for the measured pSTAT3 (MFI) in monocytes at 0.1 µM of hIL10Ra_VHH14-hIL2Rg_VHH19, no linker, tag his (bispecific antibody, not shown: small tags and cut ends) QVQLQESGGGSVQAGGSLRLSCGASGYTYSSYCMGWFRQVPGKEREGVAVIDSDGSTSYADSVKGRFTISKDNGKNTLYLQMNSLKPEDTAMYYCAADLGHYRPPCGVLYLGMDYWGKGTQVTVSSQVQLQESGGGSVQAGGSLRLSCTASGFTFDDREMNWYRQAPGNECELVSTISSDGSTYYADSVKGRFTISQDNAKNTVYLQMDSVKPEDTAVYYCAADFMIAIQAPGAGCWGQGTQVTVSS , can you help?
4420
